Assay: Acute toxicity in mice in single oral administration
Details: mouse, in vivo, 30 mg/kg, 30 mg-active ingredient/kg, five 6-week-old CD-1 male mice, 7 days after administration, read-out: Death Rate (%)
Description: Acute toxicity (p.o.) in mice of compound Nos. 8, 10, 13, 22, 23, 38, 42, and 52 was examined as follows. For comparison, compounds (IV), (V) and (VI) disclosed in JP-A-2-62876 were tested similarly. Compound Nos. 8, 10, 22, 23, 38, and 42 (30 mg each) were each suspended in 10 ml of a 0.5% CMC-Na aqueous solution. […] The number of dead mice was counted after 7 days from the administration to obtain a death rate.
measured-metric: mortality at 168 h (%)
// note: answer is a bare numeric in %

[[record]]
compound = "CCc1nn(C)c(C(=O)NCc2ccc(Oc3ccc4ccccc4c3)nc2)c1Cl [compound 38]"
measured_metric = "mortality at 168 h"
recorded_result = 0

[[record]]
compound = "Cc1nn(C)c(C(=O)NCc2ccc(Oc3ccc4ccccc4c3)nc2)c1Cl [compound 22]"
measured_metric = "mortality at 168 h"
recorded_result = 0

[[record]]
compound = "Cn1nc2c(c1C(=O)NCc1ccc(Oc3ccc4ccccc4c3)nc1)CCC2 [compound 42]"
measured_metric = "mortality at 168 h"
recorded_result = 0

[[record]]
compound = "Cc1nn(C)c(C(=O)NCc2ccc(Oc3cccc(C(F)(F)F)c3)nc2)c1C [Compound No. 10]"
measured_metric = "mortality at 168 h"
recorded_result = 0


Give mortality at 168 h for the following compound: Cc1nn(C)c(C(=O)NCc2ccc(Oc3cccc(Cl)c3)nc2)c1C [compound 8]
0

----------
experiment: Acute toxicity in mice in single oral administration; conditions: mouse, in vivo, 30 mg/kg, 30 mg-active ingredient/kg, five 6-week-old CD-1 male mice, 7 days after administration, read-out: Death Rate (%)
measured-metric: mortality at 168 h
# answer = value followed by unit

[[record]]
item_smiles = "CCc1nn(C)c(C(=O)NCc2ccc(Oc3cccc(C(F)(F)F)c3)nc2)c1Cl"
measured_metric = "mortality at 168 h"
recorded_result = "0%"

[[record]]
item_smiles = "Cc1nn(C)c(C(=O)NCc2ccc(Oc3ccc4ccccc4c3)nc2)c1Br"
measured_metric = "mortality at 168 h"
recorded_result = "0%"


Turning now to a further record.
Return mortality at 168 h (reported value) for this compound: `COc1c(C)nn(C)c1C(=O)N(Cc1ccc(Oc2ccc3ccccc3c2)nc1)C(C)=O`
0%
